Entries and their INHIBITION values follow.
system: Plasmodium berghei; experiment: Screen against P. berghei liver stage (PbLuc), transformed with Luciferase, at 2uM; type: functional, HepG2; details: tested at 2 uM
In all, about 68,000 compounds went through this assay and about 2,700 (4%) showed an effect of 50% or more. The entries come from a sample that favours strong results as a whole.

{"molecule": "Cc1ccccc1SC1CCN(C(=O)C2[C@H]3CNC[C@@H]23)CC1 (stereo partly specified)", "measure-unit": "%", "INHIBITION": 2.49}
{"molecule": "CCOc1ncnc2c1CCN(S(=O)(=O)CC)CC2", "measure-unit": "%", "INHIBITION": 8.41}
{"molecule": "COc1ccc2cnn(CC(=O)NC3CCCC3)c(=O)c2c1OC", "measure-unit": "%", "INHIBITION": 45.14}
{"molecule": "COCC1CC2(CCN(c3cc(OC)ncn3)CC2)CN1C(C)C (stereo unspecified)", "measure-unit": "%", "INHIBITION": -0.45}
{"molecule": "CCc1ncnc2c1CCN(S(=O)(=O)c1ccccc1)CC2", "measure-unit": "%", "INHIBITION": 5.44}
{"molecule": "CCOc1ncnc2c1CCN(S(=O)(=O)c1ccccc1)CC2", "measure-unit": "%", "INHIBITION": 55.07}

---

system: Plasmodium berghei; experiment: Screen against P. berghei liver stage (PbLuc), transformed with Luciferase, at 2uM; format: functional, HepG2; conditions: tested at 2 uM
The campaign covered roughly 68,000 compounds. About 2,700 (4%) showed an effect of 50% or more. The sample as a whole holds a higher share of strong results than the screen did.

{"compound": "COCC(=O)N1CCC2(C1)c1ccccc1S(=O)(=O)N2CC1CC1 (configuration not stated)", "INHIBITION": "-11.81%"}
{"compound": "O=C(c1ccc2c(c1)COC2)N1CCCC(n2cncn2)C1 (configuration not stated)", "INHIBITION": "-45.72%"}
{"compound": "Cc1nc(-c2ccccc2)n(CC(=O)NC(C)C2CC2)n1 (configuration not stated)", "INHIBITION": "32.56%"}
{"compound": "Cc1[nH]c2ccccc2c1-c1ccnc(NCCN2CCCCC2)n1", "INHIBITION": "-2.21%"}
{"compound": "CCn1nc(C)c(CNC(=O)c2cn(CC3CCCO3)nn2)c1C (configuration not stated)", "INHIBITION": "-32.59%"}
{"compound": "O=C(CCCc1cn[nH]c1)N1C[C@@H](CN2CCCCCC2)[C@@H](CO)C1", "INHIBITION": "-5.41%"}
{"compound": "COCCC1COC2(CCN(C(=O)c3cccnc3)CC2)C1 (configuration not stated)", "INHIBITION": "1.81%"}
{"compound": "CC(C)C(CCO)NC(=O)Nc1ccc(-c2csnn2)cc1 (configuration not stated)", "INHIBITION": "12.78%"}
{"compound": "CCNC(=O)NC1CCN(c2ccc(S(=O)(=O)CC)cc2)CC1", "INHIBITION": "-6.38%"}
{"compound": "CCS(=O)(=O)c1ccc(N2CCC(NC(C)=O)CC2)cc1", "INHIBITION": "-0.54%"}
{"compound": "COCCn1cncc1CN1CCCC(C(=O)Cc2ccccc2)C1 (configuration not stated)", "INHIBITION": "58.09%"}
{"compound": "CCS(=O)(=O)c1ccc(N2CCC(N)CC2)cc1", "INHIBITION": "67.9%"}

---

Entries and their INHIBITION values follow.
tested on: Plasmodium berghei; assay: Screen against P. berghei liver stage (PbLuc), transformed with Luciferase, at 2uM; format: functional, HepG2; conditions: tested at 2 uM
Among all 68,000 compounds or so, about 2,700 (4%) showed an effect of 50% or more. Shown is part of a subset that was picked to be rich in strong results.

{"compound": "O=C(CCc1n[nH]c2c1CCCC2)N1C[C@H]2CC[C@@H](C1)N(CC1CC1)C2", "measured-target": "Plasmodium berghei", "INHIBITION (%)": 35.94}
{"compound": "COCC(=O)N1CCN(S(=O)(=O)c2ccccc2)[C@H]2CS(=O)(=O)C[C@H]21", "measured-target": "Plasmodium berghei", "INHIBITION (%)": 15.75}
{"compound": "NS(=O)(=O)c1ccc(F)c(C(=O)NCCSc2ccccn2)c1", "measured-target": "Plasmodium berghei", "INHIBITION (%)": 32.97}
{"compound": "CC(O)c1cccc(Nc2nc(NCCO)c3ccccc3n2)c1 (configuration not stated)", "measured-target": "Plasmodium berghei", "INHIBITION (%)": 60.26}
{"compound": "CCCS(=O)(=O)N1CCCC1c1cccc(N(C)C)c1 (configuration not stated)", "measured-target": "Plasmodium berghei", "INHIBITION (%)": -46.3}
{"compound": "Cc1nc(COC[C@@H]2CC[C@H]3[C@H](CCN3c3ncccn3)O2)cs1", "measured-target": "Plasmodium berghei", "INHIBITION (%)": -8.23}
{"compound": "CCC[C@@H]1CN(Cc2cc3c(cc2OC)OCCO3)C[C@H]1C(=O)O", "measured-target": "Plasmodium berghei", "INHIBITION (%)": 19.59}
{"compound": "Cn1cc(CN2CC[C@H]3O[C@H](C(=O)Nc4cnccn4)CC[C@H]32)cn1", "measured-target": "Plasmodium berghei", "INHIBITION (%)": -20.89}
{"compound": "Cn1cc(C(=O)N2CCCC(c3cc(O)n(C)n3)C2)cn1 (configuration not stated)", "measured-target": "Plasmodium berghei", "INHIBITION (%)": 27.39}
{"compound": "CC(O)CN1CCC(CNCc2ccc(C(N)=O)cc2)CC1 (configuration not stated)", "measured-target": "Plasmodium berghei", "INHIBITION (%)": -63.41}
{"compound": "CCCSCC(=O)N1CCC2(CC1)CC(c1ccccc1)CN(C)C2 (configuration not stated)", "measured-target": "Plasmodium berghei", "INHIBITION (%)": 33.16}
{"compound": "CCC(NC1CCCC1)c1ccc(S(C)(=O)=O)cc1 (configuration not stated)", "measured-target": "Plasmodium berghei", "INHIBITION (%)": 58.65}
{"compound": "Cc1ccc(CN2CC[C@H]3OCC[C@@]3(COCC(=O)N(C)C)C2)s1", "measured-target": "Plasmodium berghei", "INHIBITION (%)": -14.52}
{"compound": "CCC(C)(C)NC(=O)Cn1nnc(CN(C)C(=O)c2ccccc2)n1", "measured-target": "Plasmodium berghei", "INHIBITION (%)": 2.49}
{"compound": "Cc1noc(C(C)N2CCN(CCOCC(F)(F)F)CC2)n1 (configuration not stated)", "measured-target": "Plasmodium berghei", "INHIBITION (%)": 36.95}
{"compound": "CCC[C@@H]1CN(Cc2cc(OC)c3c(c2)OCO3)C[C@H]1C(=O)O", "measured-target": "Plasmodium berghei", "INHIBITION (%)": 57.75}
{"compound": "CNc1cncc(C2CCCN2S(=O)(=O)c2ccccc2F)n1 (configuration not stated)", "measured-target": "Plasmodium berghei", "INHIBITION (%)": 29.89}
{"compound": "Cc1cc(C)nc(NCCCC(=O)NCCn2ccc3ccccc32)n1", "measured-target": "Plasmodium berghei", "INHIBITION (%)": -12.76}
{"compound": "Cc1cc(C)nc(NCCC(=O)NCCn2ccnc2C)n1", "measured-target": "Plasmodium berghei", "INHIBITION (%)": 28.4}
{"compound": "CNC(=O)CCN(C)CC1(c2ccc(Br)cc2)CC1", "measured-target": "Plasmodium berghei", "INHIBITION (%)": -43.52}
{"compound": "CCOCCC(=O)Nc1ccnn1-c1ccc(Cl)cc1", "measured-target": "Plasmodium berghei", "INHIBITION (%)": -24.07}
{"compound": "CCC(NC1CSCCSC1)c1ccc(S(C)(=O)=O)cc1 (configuration not stated)", "measured-target": "Plasmodium berghei", "INHIBITION (%)": 9.51}
{"compound": "Cc1cc(C)c(CNC(=O)CC2CCCO2)c(=O)[nH]1 (configuration not stated)", "measured-target": "Plasmodium berghei", "INHIBITION (%)": -36.34}
{"compound": "CCOCCC(=O)Nc1cccc(Cl)c1C(N)=O", "measured-target": "Plasmodium berghei", "INHIBITION (%)": 56.89}
{"compound": "Cc1cc(C)nc(N2CCCC(C)(c3[nH]ncc3C(=O)N(C)C)C2)n1 (configuration not stated)", "measured-target": "Plasmodium berghei", "INHIBITION (%)": -81.44}
{"compound": "O=C(CCNS(=O)(=O)c1ccc(F)cc1)NCc1ccoc1", "measured-target": "Plasmodium berghei", "INHIBITION (%)": 12.01}
{"compound": "CCn1cc(-c2cc(C(F)F)n3nc(CC(=O)O)nc3n2)cn1", "measured-target": "Plasmodium berghei", "INHIBITION (%)": -20.05}
{"compound": "CN(Cc1cnn(C)c1)S(=O)(=O)N1CCCCCC1", "measured-target": "Plasmodium berghei", "INHIBITION (%)": 47.68}
{"compound": "CSC1=Nc2c(cnn2-c2ccc(C)cc2)C2=NCCCN12", "measured-target": "Plasmodium berghei", "INHIBITION (%)": 44.7}
{"compound": "COCc1nc(C(=O)NS(=O)(=O)c2ccc(Cl)cc2F)cs1", "measured-target": "Plasmodium berghei", "INHIBITION (%)": -7.88}
{"compound": "CCOCCC(=O)Nc1cccc(Cl)c1COC", "measured-target": "Plasmodium berghei", "INHIBITION (%)": 1.06}
{"compound": "CCN1CCCC(NC(=O)c2ccc(C)[nH]c2=O)C1 (configuration not stated)", "measured-target": "Plasmodium berghei", "INHIBITION (%)": -53.67}
{"compound": "CCC(NC1Cc2ccccc2C1)c1ccc(S(C)(=O)=O)cc1 (configuration not stated)", "measured-target": "Plasmodium berghei", "INHIBITION (%)": 10.02}
{"compound": "CCC[C@@H]1CN(Cc2cc3c(cc2OC)OCO3)C[C@H]1C(=O)O", "measured-target": "Plasmodium berghei", "INHIBITION (%)": -23.34}
{"compound": "CCN(Cc1cc(F)c(OC)c(Cl)c1)Cc1nc(COC)no1", "measured-target": "Plasmodium berghei", "INHIBITION (%)": -20.98}
{"compound": "CS(=O)(=O)NCCCn1ccc2ccccc21", "measured-target": "Plasmodium berghei", "INHIBITION (%)": 24.23}
{"compound": "CC(C)(C)C(CCO)NC(=O)Nc1ccncc1 (configuration not stated)", "measured-target": "Plasmodium berghei", "INHIBITION (%)": 6.84}
{"compound": "Nc1ncccc1C(=O)NCc1ccc(Br)cc1", "measured-target": "Plasmodium berghei", "INHIBITION (%)": 49.69}
{"compound": "CN(C)C(=O)N1Cc2nnn(C)c2C(COCc2cccnc2)C1 (configuration not stated)", "measured-target": "Plasmodium berghei", "INHIBITION (%)": -16.25}
{"compound": "Nc1c(N2CCOCC2)ncnc1N1CCOCC1", "measured-target": "Plasmodium berghei", "INHIBITION (%)": -18.65}
{"compound": "CCOc1ccc(Oc2cc(CN)ccn2)cc1", "measured-target": "Plasmodium berghei", "INHIBITION (%)": 16.95}
{"compound": "O=C(N1CCCC1)N1C[C@H]2CCC[C@@]2(COCc2ccccn2)C1", "measured-target": "Plasmodium berghei", "INHIBITION (%)": 5.44}
{"compound": "CCN(CC)c1nc(Nc2cccc(C(=O)O)c2)nc2ccccc12", "measured-target": "Plasmodium berghei", "INHIBITION (%)": 22.51}
{"compound": "Cn1cc(-c2cc(C(F)F)n3nc(CCC(=O)O)nc3n2)cn1", "measured-target": "Plasmodium berghei", "INHIBITION (%)": 48.58}
{"compound": "CC(C)N1CCN(C(=O)c2ccccc2NCc2cccnc2)CC1", "measured-target": "Plasmodium berghei", "INHIBITION (%)": 8.73}
{"compound": "CC(C)NS(=O)(=O)c1cc(C(=O)O)cc(-c2ccc3c(c2)OCO3)c1", "measured-target": "Plasmodium berghei", "INHIBITION (%)": -12.67}
{"compound": "Cc1ccc(C(=O)NC2CCCN(S(C)(=O)=O)C2)c(=O)[nH]1 (configuration not stated)", "measured-target": "Plasmodium berghei", "INHIBITION (%)": -34.79}
